- Tgt: CYP2C19 (Homo sapiens (Human))
- Sequence (P33261 whole entry): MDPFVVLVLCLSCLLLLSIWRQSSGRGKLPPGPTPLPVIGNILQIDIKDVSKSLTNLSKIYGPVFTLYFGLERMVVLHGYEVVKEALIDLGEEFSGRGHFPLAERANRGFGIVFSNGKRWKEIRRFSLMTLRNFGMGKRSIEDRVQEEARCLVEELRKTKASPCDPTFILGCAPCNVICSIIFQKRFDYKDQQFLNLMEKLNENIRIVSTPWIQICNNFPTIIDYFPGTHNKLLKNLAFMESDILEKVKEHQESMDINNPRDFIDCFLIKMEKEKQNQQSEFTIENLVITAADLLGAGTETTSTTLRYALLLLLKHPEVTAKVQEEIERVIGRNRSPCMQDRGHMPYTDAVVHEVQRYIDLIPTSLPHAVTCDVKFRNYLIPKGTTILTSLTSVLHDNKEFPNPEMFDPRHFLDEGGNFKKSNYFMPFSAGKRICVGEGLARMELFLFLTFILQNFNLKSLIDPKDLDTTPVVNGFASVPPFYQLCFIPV
- Assay name: CYP inhibition in human liver microsomes
- Format: in vitro ADME
- Method: To evaluate the in vitro CYP inhibition of BNS808 and BNS822, the compounds were tested in human liver microsomes that are rich in drug metabolizing enzymes, including CYPs 1A2, 2C9, 2C19, 2D6, 3A4.
Parameter measured: IC50 (µM)
Value expressed in µM; do not type the unit.

Please report the recorded IC50 for O=S(=O)(NC1CCCOc2c1nn(-c1ccccc1Cl)c2-c1ccc(Cl)cc1)c1ccc(Cl)cc1 (stereo not shown) . 18

###

- Tgt: CB1 receptor (Mus musculus (Mouse))
- Sequence (P47746 whole entry): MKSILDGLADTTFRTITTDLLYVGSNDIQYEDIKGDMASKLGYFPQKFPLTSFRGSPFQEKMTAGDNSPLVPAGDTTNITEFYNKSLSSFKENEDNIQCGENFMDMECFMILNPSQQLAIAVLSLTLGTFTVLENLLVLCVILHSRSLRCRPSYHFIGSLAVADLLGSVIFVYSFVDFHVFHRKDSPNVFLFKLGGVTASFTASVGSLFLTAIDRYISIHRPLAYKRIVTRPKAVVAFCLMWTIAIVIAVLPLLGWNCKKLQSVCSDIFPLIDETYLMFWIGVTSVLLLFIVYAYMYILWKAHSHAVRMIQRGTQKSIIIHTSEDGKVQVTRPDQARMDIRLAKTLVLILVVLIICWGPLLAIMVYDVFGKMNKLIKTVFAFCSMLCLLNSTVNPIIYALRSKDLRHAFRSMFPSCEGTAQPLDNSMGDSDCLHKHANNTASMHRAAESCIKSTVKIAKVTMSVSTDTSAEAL
- Assay name: CB1 receptor radioligand binding assay, [3H]CP-55,940 displacement, mouse brain membranes
- Condition: mouse (m) CB1 receptor; read-out: CB1R Ki (nM) (m)
Parameter measured: Ki (nM)
Value expressed in nM; do not type the unit.

What reported Ki corresponds to Cc1ccc(S(=O)(=O)NC2CCCOc3c2nn(-c2ccccc2Cl)c3-c2ccc(Cl)cc2)cc1 (stereo not shown) [BNS807] on CB1 receptor (Mus musculus (Mouse))? 10

What reported Ki corresponds to O=C(NC1CCCOc2c1nn(-c1ccccc1Cl)c2-c1ccc(Cl)cc1)[C@H]1CCCN1 (stereo partly shown) [BNS820] on CB1 receptor (Mus musculus (Mouse))? 877

What reported Ki corresponds to O=C(NC1CCCOc2c1nn(-c1ccccc1Cl)c2-c1ccc(Cl)cc1)c1cccnc1 (stereo not shown) [BNS803] on CB1 receptor (Mus musculus (Mouse))? 22.4

What reported Ki corresponds to O=C(NC1CCCOc2c1nn(-c1ccccc1Cl)c2-c1ccc(Cl)cc1)c1nc[nH]n1 (stereo not shown) [BNS801] on CB1 receptor (Mus musculus (Mouse))? 805

What reported Ki corresponds to O=C(NC1CCCOc2c1nn(-c1ccccc1Cl)c2-c1ccc(Cl)cc1)c1ncc[nH]1 (stereo not shown) [BNS806] on CB1 receptor (Mus musculus (Mouse))? 165

What reported Ki corresponds to CC(C)(Oc1ccc(Cl)cc1)C(=O)NC1CCCOc2c1nn(-c1ccccc1Cl)c2-c1ccc(Cl)cc1 (stereo not shown) [BNS804] on CB1 receptor (Mus musculus (Mouse))? 1.16

What reported Ki corresponds to O=C(NC1CCCOc2c1nn(-c1ccccc1Cl)c2-c1ccc(Cl)cc1)c1ccncc1 (stereo not shown) [BNS812] on CB1 receptor (Mus musculus (Mouse))? 16.3

What reported Ki corresponds to CS(=O)(=O)CC(=O)N1CCC(C(=O)NC2CCCOc3c2nn(-c2ccccc2Cl)c3-c2ccc(Cl)cc2)CC1 (stereo not shown) [BNS824] on CB1 receptor (Mus musculus (Mouse))? 456

What reported Ki corresponds to CCOC(=O)N1CCC(C(=O)NC2CCCOc3c2nn(-c2ccccc2Cl)c3-c2ccc(Cl)cc2)CC1 (stereo not shown) [BNS816] on CB1 receptor (Mus musculus (Mouse))? 8.93

What reported Ki corresponds to CS(=O)(=O)NC1CCCOc2c1nn(-c1ccccc1Cl)c2-c1ccc(Cl)cc1 (stereo not shown) [BNS809] on CB1 receptor (Mus musculus (Mouse))? 33.8

What reported Ki corresponds to O=C(NC1CCCOc2c1nn(-c1ccccc1Cl)c2-c1ccc(Cl)cc1)C1CCN(C(=O)c2cccnc2)CC1 (stereo not shown) [BNS817] on CB1 receptor (Mus musculus (Mouse))? 290

What reported Ki corresponds to O=C(NC1CCCOc2c1nn(-c1ccccc1Cl)c2-c1ccc(Cl)cc1)c1cnccn1 (stereo not shown) [BNS805] on CB1 receptor (Mus musculus (Mouse))? 77.8

What reported Ki corresponds to O=C(NC1CCCOc2c1nn(-c1ccccc1Cl)c2-c1ccc(Cl)cc1)C1CCN(S(=O)(=O)c2ccc(Cl)cc2)CC1 (stereo not shown) [BNS825] on CB1 receptor (Mus musculus (Mouse))? 1.6

###

- Assay name: Pharmacokinetics after oral and IV dosing
- Format: in vivo, C57BL/6J mice
- Condition: mouse, plasma; oral administration of 10 and 20 mg/kg, C57BL/6J male mice
Parameter measured: half-life (h)
Value expressed in h; do not type the unit.

Please report the recorded half-life for Cc1ccc(C)c(OCCCC(C)(C)C(=O)NC2CCCOc3c2nn(-c2ccccc2Cl)c3-c2ccc(Cl)cc2)c1 (stereo not shown) [BNS822] . 5.2

###

- Assay name: Pharmacokinetics after oral and IV dosing
- Assay type: in vivo, C57BL/6J mice
- Condition: male, C57BL/6J, mouse, plasma, po, 20 mg/kg, oral 20 mg/kg, mice
Parameter measured: Cmax (ng/mL)
Value expressed in ng/mL; do not type the unit.

Please report the recorded Cmax for Cc1ccc(C)c(OCCCC(C)(C)C(=O)NC2CCCOc3c2nn(-c2ccccc2Cl)c3-c2ccc(Cl)cc2)c1 (stereo not shown) [BNS822] . 811

###

- Test system: P-gp (MDR1, ABCB1)
- Assay name: MDR1-MDCK II cell permeation assay (bi-directional permeability, P-gp efflux)
- Assay type: in vitro ADME
- Condition: dog, MDCK-MDR1, pH 7.4; efflux ratio, without P-gp inhibitor; read-out: MDR1 B:A/A:B
Parameter measured: efflux ratio at 2.5 h, 2 μM
Please state the value as a number alone, without comment.

Please report the recorded efflux ratio at 2.5 h, 2 μM for O=C(NC1CCCOc2c1nn(-c1ccccc1Cl)c2-c1ccc(Cl)cc1)c1cnccn1 (centres unmarked) . 0.82

Please report the recorded efflux ratio at 2.5 h, 2 μM for O=C(NC1CCCOc2c1nn(-c1ccccc1Cl)c2-c1ccc(Cl)cc1)c1cccnc1 (centres unmarked) . 0.77

Please report the recorded efflux ratio at 2.5 h, 2 μM for O=C(NC1CCCOc2c1nn(-c1ccccc1Cl)c2-c1ccc(Cl)cc1)C1CCN(C(=O)c2cccnc2)CC1 (centres unmarked) . 1.92

###

- Tgt: CYP3A4 (Homo sapiens (Human))
- Sequence (P08684 whole entry): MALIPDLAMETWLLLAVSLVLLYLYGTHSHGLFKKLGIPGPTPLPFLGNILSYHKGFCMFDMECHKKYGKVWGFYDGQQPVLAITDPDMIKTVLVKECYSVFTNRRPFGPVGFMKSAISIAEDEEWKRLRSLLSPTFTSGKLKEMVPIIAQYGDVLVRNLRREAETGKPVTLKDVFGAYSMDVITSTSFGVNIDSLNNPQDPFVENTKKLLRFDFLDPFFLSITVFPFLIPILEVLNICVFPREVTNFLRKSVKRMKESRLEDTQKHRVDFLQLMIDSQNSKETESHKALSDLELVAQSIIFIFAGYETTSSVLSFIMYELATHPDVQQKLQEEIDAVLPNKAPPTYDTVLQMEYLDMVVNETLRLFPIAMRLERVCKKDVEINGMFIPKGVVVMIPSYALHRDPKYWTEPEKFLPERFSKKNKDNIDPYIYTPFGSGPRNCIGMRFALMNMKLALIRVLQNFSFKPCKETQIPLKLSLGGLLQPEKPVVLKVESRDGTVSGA
- Assay name: CYP inhibition in human liver microsomes
- Type: in vitro ADME
- Condition: fifth value column, read-out: IC50 (μM) CYP 3A4
Parameter measured: IC50 (µM)
Value expressed in µM; do not type the unit.

What reported IC50 corresponds to O=S(=O)(NC1CCCOc2c1nn(-c1ccccc1Cl)c2-c1ccc(Cl)cc1)c1ccc(Cl)cc1 (centres unmarked) [BNS808] on CYP3A4 (Homo sapiens (Human))? 2.99

###

- Assay name: Pharmacokinetics after oral and IV dosing
- Assay type: in vivo, C57BL/6J mice
- Condition: male, C57BL/6J, mouse, plasma, po, 10 mg/kg, oral 10 mg/kg, mice
Parameter measured: Cmax (ng/mL)
Value expressed in ng/mL; do not type the unit.

Please report the recorded Cmax for Cc1ccc(C)c(OCCCC(C)(C)C(=O)NC2CCCOc3c2nn(-c2ccccc2Cl)c3-c2ccc(Cl)cc2)c1 (stereo not shown) . 283

###

- Test system: MDR1-MDCKII cells
- Assay name: MDR1-MDCK II cell permeation assay (bi-directional permeability, P-gp efflux)
- Assay type: in vitro ADME
Parameter measured: Rank Papp

Answered examples (5):
>  <Compound>
O=C(NC1CCCOc2c1nn(-c1ccccc1Cl)c2-c1ccc(Cl)cc1)C1CCN(C(=O)c2cccnc2)CC1 (stereo not shown) [BNS817]

>  <Rank Papp>
High

$$$$
>  <Compound>
O=C(NC1CCCOc2c1nn(-c1ccccc1Cl)c2-c1ccc(Cl)cc1)c1cccnc1 (stereo not shown) [BNS803]

>  <Rank Papp>
High

$$$$
>  <Compound>
CC(C)(Oc1ccc(C(=O)c2ccc(Cl)cc2)cc1)C(=O)NC1CCCOc2c1nn(-c1ccccc1Cl)c2-c1ccc(Cl)cc1 (stereo not shown) [BNS823]

>  <Rank Papp>
Low

$$$$
>  <Compound>
CS(=O)(=O)N1CCC(C(=O)NC2CCCOc3c2nn(-c2ccccc2Cl)c3-c2ccc(Cl)cc2)CC1 (stereo not shown) [BNS815]

>  <Rank Papp>
High

$$$$
>  <Compound>
Cc1ccc(C)c(OCCCC(C)(C)C(=O)NC2CCCOc3c2nn(-c2ccccc2Cl)c3-c2ccc(Cl)cc2)c1 (stereo not shown) [BNS822]

>  <Rank Papp>
Low

$$$$

Below: the item to evaluate.
Please report the recorded Rank Papp for CCOC(=O)N1CCC(C(=O)NC2CCCOc3c2nn(-c2ccccc2Cl)c3-c2ccc(Cl)cc2)CC1 (stereo not shown) [BNS816] . High

###

Answer each item with its documented Ki.
- Tgt: CB1 receptor (Homo sapiens (Human), UniProt P21554)
- Sequence (P21554 whole entry): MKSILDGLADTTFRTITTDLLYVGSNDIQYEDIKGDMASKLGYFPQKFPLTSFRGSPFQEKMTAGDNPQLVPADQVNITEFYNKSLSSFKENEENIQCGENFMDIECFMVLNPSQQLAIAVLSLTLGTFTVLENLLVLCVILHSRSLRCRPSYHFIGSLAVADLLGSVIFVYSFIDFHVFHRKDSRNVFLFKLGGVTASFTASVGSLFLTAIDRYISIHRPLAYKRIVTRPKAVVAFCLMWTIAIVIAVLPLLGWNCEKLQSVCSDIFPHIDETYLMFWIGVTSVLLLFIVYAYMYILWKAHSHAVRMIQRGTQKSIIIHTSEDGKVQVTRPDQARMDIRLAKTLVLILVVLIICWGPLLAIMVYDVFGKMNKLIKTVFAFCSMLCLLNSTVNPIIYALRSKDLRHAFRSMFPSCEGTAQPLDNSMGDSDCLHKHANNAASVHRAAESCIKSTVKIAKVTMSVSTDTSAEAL
- Assay name: CB1 receptor radioligand binding assay, membranes from human source
- Condition: human (h) CB1 receptor; read-out: CB1R Ki (nM) (h)
Value expressed in nM; do not type the unit.

Please report the recorded Ki for O=C(NC1CCCOc2c1nn(-c1ccccc1Cl)c2-c1ccc(Cl)cc1)c1cnccn1 (stereo not shown) [BNS805] . 8.75

Please report the recorded Ki for O=C(NC1CCCOc2c1nn(-c1ccccc1Cl)c2-c1ccc(Cl)cc1)c1cccnc1 (stereo not shown) [BNS803] . 6.48

Please report the recorded Ki for O=C(NC1CCCOc2c1nn(-c1ccccc1Cl)c2-c1ccc(Cl)cc1)c1nc[nH]n1 (stereo not shown) [BNS801] . 232

Please report the recorded Ki for CS(=O)(=O)NC1CCCOc2c1nn(-c1ccccc1Cl)c2-c1ccc(Cl)cc1 (stereo not shown) [BNS809] . 7.7

Please report the recorded Ki for Cc1ccc(S(=O)(=O)NC2CCCOc3c2nn(-c2ccccc2Cl)c3-c2ccc(Cl)cc2)cc1 (stereo not shown) [BNS807] . 1.4

Please report the recorded Ki for CC(C)(Oc1ccc(Cl)cc1)C(=O)NC1CCCOc2c1nn(-c1ccccc1Cl)c2-c1ccc(Cl)cc1 (stereo not shown) [BNS804] . 1.96

Please report the recorded Ki for O=C(NC1CCCOc2c1nn(-c1ccccc1Cl)c2-c1ccc(Cl)cc1)c1ncc[nH]1 (stereo not shown) [BNS806] . 23.7

Hey, just so you know, these numbers are from patent US20240189287A1.
